Target: Induced myeloid leukemia cell differentiation protein Mcl-1 (Homo sapiens)
Experiment: disruptors of Mcl-1 and Noxa BH3 peptide – biochemical, TR-FRET, 1536-well, primary screen (AID 1022);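 also: His-tagged Mcl-1 with rhodamine Noxa BH3 peptide and terbium anti-His antibody; 0% = Mcl-1 plus Noxa peptide wells and 100% = peptide-only wells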
Conditions: TR-FRET Mcl-1/Noxa peptide binding, 2 h; at 21.7 µM; hits give high values
Screen size: about 220,000 compounds; about 3,300 (1.5%) were called active. Many of the other results were omitted from the sample, so actives are more common in it than they were.
readout.kind: inhibition (%)
Response body: numeric value in %, unit text excluded.

Below are worked cases with known answers.
- smiles.code: "O=C(CSc1nnc(-c2ccco2)n1Cc1ccccc1)NC(=O)NCc1ccco1"
  inhibition [%]: 31.8
- smiles.code: "Nc1nc(SCc2ccccc2Cl)n[nH]1"
  inhibition [%]: -21.7
- smiles.code: "O=C(c1ccco1)N1CCN(CCOc2ccccc2)CC1"
  inhibition [%]: 10.5
- smiles.code: "Clc1ccccc1CSc1nnc(-c2ccco2)c(-c2ccco2)n1"
  inhibition [%]: 109

Cc1ccc(-c2csc(-c3cc(C)on3)n2)cc1 yielded inhibition of -2.5

CC(=O)Nc1ccc(NC(=S)NC(=O)/C=C/c2ccccc2)cc1 yielded inhibition of 3.86

###

Target: Induced myeloid leukemia cell differentiation protein Mcl-1 (Homo sapiens) (UniProt Q07820)
Sequence (Q07820 whole entry, looked up): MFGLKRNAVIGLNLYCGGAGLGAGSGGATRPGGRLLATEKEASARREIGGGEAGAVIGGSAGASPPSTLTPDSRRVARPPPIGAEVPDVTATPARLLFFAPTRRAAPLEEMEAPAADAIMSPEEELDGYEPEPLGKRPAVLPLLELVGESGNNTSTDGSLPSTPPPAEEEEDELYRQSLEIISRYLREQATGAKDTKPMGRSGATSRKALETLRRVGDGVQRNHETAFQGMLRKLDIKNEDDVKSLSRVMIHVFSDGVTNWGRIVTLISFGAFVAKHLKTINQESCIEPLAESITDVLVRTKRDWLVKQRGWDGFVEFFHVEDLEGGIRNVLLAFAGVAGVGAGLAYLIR
Experiment: disruptors of Mcl-1 and Noxa BH3 peptide – biochemical, TR-FRET, 1536-well, primary screen (AID 1022)
Details: TR-FRET Mcl-1/Noxa peptide binding, 2 h; at 21.7 µM; hits give high values
In all, about 220,000 compounds went through this assay and about 3,300 (1.5%) were called active. This excerpt belongs to a sample that is enriched for actives.
Below, each entry is listed alongside its reported inhibition.
Response body: numeric value in %, unit text excluded.

Below are worked cases with known answers.
- compound: "CC(/C=N/NC(=O)c1ccncc1)=C\\c1ccco1"
  inhibition / %: 16.1
- compound: "Cc1ccc(-c2cc(C(=O)N/N=C/C=C/c3ccco3)c3ccccc3n2)cc1C"
  inhibition / %: 19.7
- compound: "O=C(c1ccc(F)cc1)C1CCN(Cc2cn[nH]c2-c2ccccc2)CC1"
  inhibition / %: -14.2
- compound: "O=C(COC(=O)/C=C/c1ccc2c(c1)OCO2)NC1CCS(=O)(=O)C1 (stereo unspecified)"
  inhibition / %: 16
- compound: "COc1ccccc1CNC(=O)Cn1c(=O)oc2cc(Cl)ccc21"
  inhibition / %: -8.08
- compound: "COc1ccc(CC(=O)NCC(=O)N/N=C/c2cc(Br)ccc2OC)cc1"
  inhibition / %: 0.9
- compound: "Clc1ccc2nc(-c3ccccc3)nc(C(Cl)Cl)c2c1"
  inhibition / %: -22.1
- compound: "Cc1ccc(S(=O)(=O)NNC(=S)NC(C)(C)C)cc1"
  inhibition / %: -14.3
- compound: "CC(C)CNC(=S)NC(=O)c1ccc(Cl)cc1"
  inhibition / %: 62.4
- compound: "CC12CN3CCN(CC(C3)/C1=N\\NC(=O)c1ccccc1N)C2"
  inhibition / %: 15.5

CC1CCN(c2ccc([N+](=O)[O-])c(SCCO)c2)CC1 yielded inhibition of -16

###

Target: Induced myeloid leukemia cell differentiation protein Mcl-1 (Homo sapiens) (UniProt Q07820)
Test: disruptors of Mcl-1 and Noxa BH3 peptide – biochemical, TR-FRET, 1536-well, primary screen (AID 1022)
Conditions: TR-FRET Mcl-1/Noxa peptide binding, 2 h; at 21.7 µM
The campaign covered roughly 220,000 compounds. About 3,300 (1.5%) were called active.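 How the source made its calls: active means compounds that cut the protein-peptide binding signal by more than 50% relative to plate controls in a single-dose test; inactive means the rest.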 The list comes from a sample in which actives are over-represented; it also holds close analogues and randomly drawn compounds.
In this exercise, the only acceptable responses are 1.0 (active), 0.0 (inactive)

- compound: "O=C(O)C1CCN(c2ccc([N+](=O)[O-])cc2[N+](=O)[O-])CC1"
  group: 0.0

Ask: Which outcome did this test record for the compound O=[N+]([O-])c1ccc(N2CCN(c3ccc(O)cc3)CC2)c(Cl)c1 ?
Reply: 1.0

Ask: Which outcome did this test record for the compound Cc1coc2c(O)cc3c(c12)OC1(N2CCCCC2)C(=O)NCCCC31 (stereo unspecified) ?
Reply: 1.0

###

Target: Induced myeloid leukemia cell differentiation protein Mcl-1 (Homo sapiens)
Assay: disruptors of Mcl-1 and Noxa BH3 peptide – biochemical, TR-FRET, 1536-well, primary screen (AID 1022);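 also: His-tagged Mcl-1 with rhodamine Noxa BH3 peptide and terbium anti-His antibody; 0% = Mcl-1 plus Noxa peptide wells and 100% = peptide-only wells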
Details: TR-FRET Mcl-1/Noxa peptide binding, 2 h; at 21.7 µM
Screen size: about 220,000 compounds; about 3,300 (1.5%) were called active.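 How the source made its calls: active means compounds that cut the protein-peptide binding signal by more than 50% relative to plate controls in a single-dose test; inactive means the rest.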 This is one part of a sample in which actives are shown more often than they occur.
In this exercise, the only acceptable responses are yes (active), no (inactive)

Completed entries (count: 2):
- molecule: "NC(=O)c1c(Nc2nc3c(F)cccc3s2)sc2c1CCCC2"
  group: "yes"
- molecule: "CC1=C(C(=O)Nc2ccccc2)C(c2ccco2)C(C#N)=C(SCC(N)=O)N1 (stereo unspecified)"
  group: "no"

Ask: Which outcome did this test record for the molecule O=C(NCC1CCCO1)/C(=C\c1ccco1)NC(=O)c1ccccc1 (stereo unspecified) ?
Reply: no

Ask: Which outcome did this test record for the molecule CC(NC(=S)NNS(=O)(=O)c1ccc(C(C)(C)C)cc1)c1ccccc1 (stereo unspecified) ?
Reply: no

Ask: Which outcome did this test record for the molecule COCCn1c(SCC(=O)c2[nH]c(C)c(C(C)=O)c2C)nc2ccccc2c1=O ?
Reply: no

###

Target: Induced myeloid leukemia cell differentiation protein Mcl-1 (Homo sapiens) (UniProt Q07820)
Test: disruptors of Mcl-1 and Noxa BH3 peptide – biochemical, TR-FRET, 1536-well, primary screen (AID 1022);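 also: His-tagged Mcl-1 with rhodamine Noxa BH3 peptide and terbium anti-His antibody; 0% = Mcl-1 plus Noxa peptide wells and 100% = peptide-only wells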
Settings: TR-FRET Mcl-1/Noxa peptide binding, 2 h; at 21.7 µM
About 3,300 (1.5%) of roughly 220,000 compounds were called active.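 Rule for the calls: active = compounds that cut the protein-peptide binding signal by more than 50% relative to plate controls in a single-dose test; inactive = the rest.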 Only a selection was taken, and actives are over-represented in it overall.
In this exercise, the only acceptable responses are Y = active, N = inactive

- compound: "S=c1[nH]nc(-c2cc(-c3ccccc3)n[nH]2)n1/N=C/c1c2ccccc2cc2ccccc12"
  group: "Y"
- compound: "CN(C(=O)COC(=O)c1cc(-c2ccco2)nc2ccccc12)C1CCS(=O)(=O)C1 (stereo not drawn)"
  group: "Y"
- compound: "Cc1ccc(OC(=O)c2c(C)nn(-c3ccccc3)c2C)cc1"
  group: "N"
- compound: "CCOC(=O)c1sc2nc(C)[nH]c(=O)c2c1C"
  group: "N"

Ask: Which outcome did this test record for the compound O=C(NCc1ccccn1)c1cc(Br)ccc1Cl ?
Reply: N

Ask: Which outcome did this test record for the compound Nc1ccccc1Sc1ccc(C(F)(F)F)cc1[N+](=O)[O-] ?
Reply: N

Ask: Which outcome did this test record for the compound COC(=O)c1sc2[nH]c(=S)n(N)c(=O)c2c1C ?
Reply: Y

Ask: Which outcome did this test record for the compound O=S(=O)(c1ccc(Cl)cc1)N1CCCN(c2ccc(C(F)(F)F)cn2)CC1 ?
Reply: N

Ask: Which outcome did this test record for the compound NC1=NC(=O)S/C1=C\c1ccc(O)cc1 ?
Reply: N

Ask: Which outcome did this test record for the compound COc1cc(C(CCN2CCN(c3ccccc3)CC2)c2c(OC)cc(OC)c3ccc(=O)oc23)cc(OC)c1OC (stereo not drawn) ?
Reply: N

Ask: Which outcome did this test record for the compound O=C(NCc1ccccc1Cl)NC(=O)c1csc([N+](=O)[O-])c1 ?
Reply: N

Ask: Which outcome did this test record for the compound Cc1ccc2cc(/C=N/Nc3ccc(C(=O)O)cc3)c(Cl)nc2c1 ?
Reply: N

Ask: Which outcome did this test record for the compound S=c1[nH]nc(-c2ccccc2)n1/N=C/c1c[nH]c2ccccc12 ?
Reply: N

Ask: Which outcome did this test record for the compound COc1ccc(NC(=O)COc2ccc(C(=O)OCC(=O)N(C)C3CCS(=O)(=O)C3)cc2OC)cc1 (stereo not drawn) ?
Reply: N

Ask: Which outcome did this test record for the compound S=c1[nH]nc(-c2ccco2)n1/N=C/c1ccccc1 ?
Reply: N

###

Target: Induced myeloid leukemia cell differentiation protein Mcl-1 (Homo sapiens)
Experiment: disruptors of Mcl-1 and Noxa BH3 peptide – biochemical, TR-FRET, 1536-well, primary screen (AID 1022);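 also: His-tagged Mcl-1 with rhodamine Noxa BH3 peptide and terbium anti-His antibody; 0% = Mcl-1 plus Noxa peptide wells and 100% = peptide-only wells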
Conditions: TR-FRET Mcl-1/Noxa peptide binding, 2 h; at 21.7 µM; hits give high values
In all, about 220,000 compounds went through this assay and about 3,300 (1.5%) were called active. The list comes from a sample in which actives are over-represented; it also holds close analogues and randomly drawn compounds.
Label class 1 when inhibition is at or above 30%; otherwise label class 0.

- molecule: "C=CC1C(OC2OC(CO)C(O)C(O)C2O)OC=C(C(=O)OC)C1CC1CC(=O)CC(CC(=O)CCc2ccc(O)cc2)O1 (stereo not drawn)"
  target.system: "Induced myeloid leukemia cell differentiation protein Mcl-1 (Homo sapiens)"
  group: "class 0"
- molecule: "N#CC1=C(N)Oc2c(ccc3cccnc23)C1c1ccncc1 (stereo not drawn)"
  target.system: "Induced myeloid leukemia cell differentiation protein Mcl-1 (Homo sapiens)"
  group: "class 0"
- molecule: "COc1cc(/C=C(\\C#N)C(=O)Nc2ccc3ccccc3c2)c([N+](=O)[O-])cc1OC"
  target.system: "Induced myeloid leukemia cell differentiation protein Mcl-1 (Homo sapiens)"
  group: "class 1"
- molecule: "COc1ccc(COCCN2CCN(S(=O)(=O)c3ccccc3)CCC2=O)cc1"
  target.system: "Induced myeloid leukemia cell differentiation protein Mcl-1 (Homo sapiens)"
  group: "class 0"
- molecule: "Cc1[nH]n(-c2ccccc2)c(=O)c1N=Nc1ccccc1C(=O)N1CCCCC1"
  target.system: "Induced myeloid leukemia cell differentiation protein Mcl-1 (Homo sapiens)"
  group: "class 0"

Ask: Evaluate Cc1ccc(N=C2NC(=O)/C(=C/C=C/c3ccco3)S2)cc1C : inhibition at minimum 30%?
Reply: class 1

Ask: Evaluate Cc1cccc(N=C2NC(=O)/C(=C/c3cn(C)c4ccccc34)S2)c1 : inhibition at minimum 30%?
Reply: class 0

Ask: Evaluate COc1cc(C(=S)NC2CCCCC2)ccc1O : inhibition at minimum 30%?
Reply: class 0

Ask: Evaluate Cn1nccc1NC(=O)Nc1ccc(OC(F)(F)F)cc1 : inhibition at minimum 30%?
Reply: class 0
